tested on: Mycobacterium tuberculosis strain H37Rv; assay: Test 2: MIC determination against M. tuberculosis, resazurin fluorescence; type: cell-based; details: Test 2, M. tuberculosis H37Rv
Quick rule for you: Bacterial activity pMIC50 at 8 or higher means TRUE, lower means FALSE.

Use these answered entries as a reference point.
>>> assigned_class("CCc1nc2ncccn2c1C(=O)NCc1ccc(-c2nc3n(n2)CC[C@H](C(F)(F)F)C3)c(C)c1")
"FALSE"
>>> assigned_class("CCc1nc2ncccn2c1C(=O)NCc1ccc(-c2nc3n(n2)CCC(C(F)(F)F)C3)cc1 (racemic) [Compound 17ab]")
"FALSE"
>>> assigned_class("CCc1nc2ncc(Cl)cn2c1C(=O)NCc1ccc(-c2nc3n(n2)CCC(C(F)(F)F)C3)cc1 (single isomer, unassigned) [Compound 10a]")
"FALSE"
>>> assigned_class("CCc1nc2nc(C)c(N(Cc3ccc(OC)cc3OC)C(=O)OC(C)(C)C)cn2c1C(=O)NCc1ccc(-c2nc3n(n2)CC[C@H](C(F)(F)F)C3)cc1")
"FALSE"
>>> assigned_class("O=C(NCc1ccc(-c2cn3c(n2)CC(C(F)(F)F)CC3)cc1)c1c(C(F)(F)F)nc2ccccn12 (racemic) [Compound 18ab]")
"FALSE"

In the following, a different molecule is considered.
Query: Dear colleague, could you confirm whether CCc1nc2ncc(C)cn2c1C(=O)NCc1ccc(-c2nc3n(n2)CC[C@@H](C(C)(F)F)C3)cc1 (single isomer, unassigned) has Bacterial activity pMIC50 at or above 8?
Reply: TRUE

Hello, the source for this data is patent US20250034171A1, in case you need it.
